Source of measurements: the supplement of paper PMC8728848

Target: Neu5Ac(a2-8)Neu5Ac(a2-3)Gal(b1-3)GalNAc(b1-4)[Neu5Ac(a2-8)Neu5Ac(a2-3)]Gal(b1-4)Glc
Assay: glycan array binding signal (z-score within array); higher = stronger binding
Conditions: glycan notation: IUPAC condensed, linker removed
Shown is part of a subset that was picked to be rich in the strongest signals.
measured.property: glycan array binding signal (z-score)
Kindly provide the number alone.

QUERY: Fill in: glycan array binding signal (z-score) of EUL D1A (Oryza sativa) (protein) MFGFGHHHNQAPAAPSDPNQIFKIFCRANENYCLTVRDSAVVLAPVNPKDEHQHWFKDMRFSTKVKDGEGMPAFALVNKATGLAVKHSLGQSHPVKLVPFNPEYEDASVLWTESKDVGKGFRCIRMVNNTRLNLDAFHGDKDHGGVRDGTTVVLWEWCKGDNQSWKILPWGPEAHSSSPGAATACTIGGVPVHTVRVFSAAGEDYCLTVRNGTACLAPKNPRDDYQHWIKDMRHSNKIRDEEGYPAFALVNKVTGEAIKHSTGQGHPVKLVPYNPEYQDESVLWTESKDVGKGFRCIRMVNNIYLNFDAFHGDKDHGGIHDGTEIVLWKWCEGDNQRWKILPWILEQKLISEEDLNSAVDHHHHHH is ___
RESULT: 0.293

QUERY: Quick one: glycan array binding signal (z-score) of OS9 (Arabidopsis thaliana) (protein) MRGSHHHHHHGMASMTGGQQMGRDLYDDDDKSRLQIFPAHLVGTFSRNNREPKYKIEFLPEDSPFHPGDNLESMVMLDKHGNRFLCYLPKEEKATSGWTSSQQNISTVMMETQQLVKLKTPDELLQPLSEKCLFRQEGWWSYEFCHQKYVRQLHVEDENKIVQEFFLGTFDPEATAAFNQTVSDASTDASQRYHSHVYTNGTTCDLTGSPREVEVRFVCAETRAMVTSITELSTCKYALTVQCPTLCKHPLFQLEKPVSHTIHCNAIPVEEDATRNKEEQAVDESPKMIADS ?
RESULT: -0.384
